melting point overview

molecule CC1(C)COC1(Cn1cncn1)c1ccc(F)cc1 (stereo unspecified) , melting point observed: 110 °C

* * *

Value kind: melting point

Solved entries:
Compound	Recorded result
COC(=O)C=CC(=O)OC(=C1C(=O)N(C(N)=O)c2cc(Cl)c(F)cc21)c1cccs1	184 to 186 °C
COCCc1nc2c(N)nc3cc(Br)ccc3c2n1CCCN1CCCC1=O	228 to 231 °C
COc1cc2nc3ccc(SC)cc3sc-2cc1=O	222 to 224 °C
CCCCCCCCCCCC(=O)NCCO	80 to 84 °C
Cn1cc([N+](=O)[O-])nc1C(=O)Cl	126 to 128 °C
O=C(CC(=O)c1ccc(C(F)(F)F)cc1[N+](=O)[O-])c1ccccc1	101 to 103 °C
Cn1ccc2c(-n3cc(C(=O)O)c4cccnc43)ncnc21	> 260 °C
COc1ccc(N2CCN(c3ccc(-n4cccn4)cc3)CC2)cc1	208 °C
Cc1ccc2c(c1)N(CC(=O)c1ccccc1C)C(=O)C(NC(=O)Nc1cccc(C(=O)O)c1)CN2C(=O)C(C)C (stereo not given)	162 to 165 °C

Consider CCOC(=O)C1=C(C)NC(=S)N(C(=O)OCC)C1c1ccccc1OC (stereo not given) . Its measured melting point is 117 to 118 °C

Reference source: a melting point compilation (Tetko et al.; mined from patent text by program, amines drawn as free bases though some values may be those of a salt)
